target: B-RAF G466V (Homo sapiens, UniProt P15056, G466V); construct: expressed in transfected cells; host or cells: T-Rex 293 cells (Invitrogen #R71007); assay: Target protein degradation, assay B: T-Rex 293 cells, HA-B-RAF_G466V, 96 well format; assay type: cell-based; conditions: T-Rex 293 HA-B-RAF_G466V cells, 24 hours, Examples 1-82
Sequence (P15056 whole entry G466V): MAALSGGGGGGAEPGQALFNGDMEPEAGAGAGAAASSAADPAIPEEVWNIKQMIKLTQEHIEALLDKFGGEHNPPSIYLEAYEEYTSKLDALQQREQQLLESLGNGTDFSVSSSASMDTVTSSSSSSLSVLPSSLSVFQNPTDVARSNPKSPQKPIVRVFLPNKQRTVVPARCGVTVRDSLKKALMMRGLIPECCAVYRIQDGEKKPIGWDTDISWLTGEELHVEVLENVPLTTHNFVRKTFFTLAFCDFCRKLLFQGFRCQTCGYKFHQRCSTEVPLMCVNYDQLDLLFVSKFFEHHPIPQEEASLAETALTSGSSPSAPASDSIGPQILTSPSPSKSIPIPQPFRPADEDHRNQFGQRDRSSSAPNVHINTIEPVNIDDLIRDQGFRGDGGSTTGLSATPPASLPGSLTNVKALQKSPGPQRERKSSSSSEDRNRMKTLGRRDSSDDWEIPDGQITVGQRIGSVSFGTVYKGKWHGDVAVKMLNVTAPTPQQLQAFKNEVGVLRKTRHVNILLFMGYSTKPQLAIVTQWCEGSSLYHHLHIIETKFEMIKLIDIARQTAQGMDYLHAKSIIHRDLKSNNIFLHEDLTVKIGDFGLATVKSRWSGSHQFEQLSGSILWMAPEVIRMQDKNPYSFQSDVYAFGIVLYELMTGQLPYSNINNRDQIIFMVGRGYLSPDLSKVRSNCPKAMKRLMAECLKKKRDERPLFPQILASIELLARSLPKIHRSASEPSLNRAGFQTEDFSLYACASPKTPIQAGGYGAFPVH
Assignment: determine reported DC50 for the given compounds.

# annotated cases, reported DC50 shown
The reported DC50 of the compound N#Cc1c(NS(=O)(=O)N2CC[C@@H](F)C2)ccc(F)c1Oc1ccc2ncn(-c3ccc(N4CCN(C(=O)CC5(O)CCN(c6ccc7c(c6)CN([C@H]6CCC(=O)NC6=O)C7=O)CC5)CC4)cc3)c(=O)c2c1 was 1 to 10 nM

So for N#Cc1c(NS(=O)(=O)N2CC[C@@H](F)C2)ccc(F)c1Oc1ccc2ncn(C3CCN(CC4CCN(c5ccc6c(c5)CN(C5CCC(=O)NC5=O)C6=O)CC4)CC3)c(=O)c2c1 (stereo partly shown) , the logged DC50 turned out to be ≤ 1 nM

Per the records, this compound ( N#Cc1c(NS(=O)(=O)N2CC[C@@H](F)C2)ccc(F)c1Oc1ccc2ncn(-c3cnc(N4CCN(C(=O)CC5(O)CCN(c6ccc7c(c6)CN([C@H]6CCC(=O)NC6=O)C7=O)CC5)CC4)nc3)c(=O)c2c1 ) has DC50 equal to 1 to 10 nM

The compound listed as N#Cc1c(NS(=O)(=O)N2CC[C@@H](F)C2)ccc(F)c1Oc1ccc2ncn(-c3ccc(N4CCC(CN5CCC(c6ccc7c(c6F)CN(C6CCC(=O)NC6=O)C7=O)CC5)CC4)cc3)c(=O)c2c1 (stereo partly shown) has a reported DC50 of ≤ 1 nM

Input N#Cc1c(NS(=O)(=O)N2CC[C@@H](F)C2)ccc(F)c1Oc1ccc2ncn(-c3ccc(N4CCN(CC5CCN(c6ccc7c(c6)CN([C@H]6CCC(=O)NC6=O)C7=O)CC5)CC4)cc3)c(=O)c2c1 . Output DC50: 1 to 10 nM

List the reported DC50 of each compound below.
1. N#Cc1c(NS(=O)(=O)N2CC[C@@H](F)C2)ccc(F)c1Oc1ccc2ncn(C3CCN(CCN4CCN(c5ccc6c(c5)CN(C5CCC(=O)NC5=O)C6=O)CC4)CC3)c(=O)c2c1 (stereo partly shown)
2. N#Cc1c(NS(=O)(=O)N2CC[C@@H](F)C2)ccc(F)c1Oc1ccc2ncn(-c3ccc(N4CCN(CC5CN(c6ccc7c(c6)CN(C6CCC(=O)NC6=O)C7=O)C5)CC4)nc3)c(=O)c2c1 (stereo partly shown)
3. N#Cc1c(NS(=O)(=O)N2CC[C@@H](F)C2)ccc(F)c1Oc1ccc2ncn(-c3ccn(C4CCN(CC5CCN(c6ccc7c(c6)CN(C6CCC(=O)NC6=O)C7=O)CC5)CC4)n3)c(=O)c2c1 (stereo partly shown)
4. N#Cc1c(NS(=O)(=O)N2CC[C@@H](F)C2)ccc(F)c1Oc1ccc2ncn(-c3ccc(N4CCN(C(=O)CC5(O)CCN(c6ccc(C7CCC(=O)NC7=O)cc6F)CC5)CC4)nc3)c(=O)c2c1 (stereo partly shown)
5. N#Cc1c(NS(=O)(=O)N2CC[C@@H](F)C2)ccc(F)c1Oc1ccc2ncn(-c3ccc(N4CCN(C(=O)CC5(O)CCN(c6ccc(C7CCC(=O)NC7=O)cc6F)CC5)CC4)cc3)c(=O)c2c1 (stereo partly shown)

1: 10 to 30 nM; 2: 1 to 10 nM; 3: 1 to 10 nM; 4: 1 to 10 nM; 5: > 30 nM
